Settings: in 1,1,1-trichloroethane, 299.45 K
measurement-type: solubility (mole fraction)
Form rule: numeric answer, no unit written next to it.

GET /value?item= CCCCCCCCCCCCCCCCCCCCCC(=O)OCCO &field=solubility (mole fraction) returns 0.043

* * *

Details: in ethyl acetate, 299.15 K
measurement-type: solubility (mole fraction)
Kindly provide the number alone.

# solubility (mole fraction) of CCCCCCCCCCCCCCCCCC(=O)OCCO = 0.0204

* * *

Conditions: in 1,1,2-trichlorotrifluoroethane, 303.65 K
measurement-type: solubility (mole fraction)
Give the value as a plain number.

For this compound ( CCCCCCCCCCCCCCCCCC(=O)OCCO ), measured solubility (mole fraction) is 0.0087

* * *

Details: in cyclohexane, 303.25 K
measurement-type: solubility (mole fraction)
Hey, just send me the number, nothing else.

Consider CCCCCCCCCCCCCCCCCCCC(=O)OCCO . Its measured solubility (mole fraction) is 0.0189

* * *

Conditions: in 1,1,1-trichloroethane, 304.35 K
measurement-type: solubility (mole fraction)
The answer should be a number; do not append a unit.

Field solubility (mole fraction) (entry CCCCCCCCCCCCCCCCCCCCCC(=O)OCCO ) reads 0.0718

* * *

Settings: in cyclohexane, 288.35 K
measurement-type: solubility (mole fraction)
Reply briefly: the number, and no unit.

In plain terms, CCCCCCCCCCCCCCCCCC(=O)OCCO has a documented solubility (mole fraction) of 0.0015

* * *

Details: in cyclohexane, 312.65 K
measurement-type: solubility (mole fraction)
Just the number.

The reported value for CCCCCCCCCCCCCCCCCCCCCC(=O)OCCO in terms of solubility (mole fraction) is 0.108

* * *

Conditions: in 1,1,2-trichlorotrifluoroethane, 312.65 K
measurement-type: solubility (mole fraction)
# output: bare number, no unit

The recorded solubility (mole fraction) for entry CCCCCCCCCCCCCCCCCC(=O)OCCO equals 0.0769

* * *

In this section, each of the compounds is paired with its reported solubility (mole fraction).
Details: in cyclohexane, 307.15 K
Number only, no unit.

>>> observed_value("CCCCCCCCCCCCCCCCCC(=O)OCCO")
0.0774

Let's switch to this compound now.
Documented solubility (mole fraction) of CCCCCCCCCCCCCCCCCCCCCC(=O)OCCO : 0.0204

* * *

Conditions: in 1,1,1-trichloroethane, 298.55 K
measurement-type: solubility (mole fraction)
API doc: respond with a numeric literal and nothing else, no unit.

The recorded solubility (mole fraction) for CCCCCCCCCCCCCCCCCC(=O)OCCO is 0.0504

* * *

Conditions: in ethyl acetate, 297.45 K
measurement-type: solubility (mole fraction)
Please give the numeric answer without any surrounding text.

Value of solubility (mole fraction) reported for the compound CCCCCCCCCCCCCCCCCC(=O)OCCO is 0.0118

* * *

Conditions: in 1,1,1-trichloroethane, 300.95 K
measurement-type: solubility (mole fraction)
Please give only the number in your answer, with no unit.

Entry CCCCCCCCCCCCCCCCCC(=O)OCCO , solubility (mole fraction) reported as 0.0723

* * *

Conditions: in n-butyl acetate, 312.85 K
measurement-type: solubility (mole fraction)
Answer with the value's number alone.

The compound listed as CCCCCCCCCCCCCCCCCCCC(=O)OCCO has a reported solubility (mole fraction) of 0.172

* * *

Conditions: in isopropanol, 309.85 K
measurement-type: solubility (mole fraction)
// return a plain number; no unit text

solubility (mole fraction) for CCCCCCCCCCCCCCCCCCCC(=O)OCCO is 0.001

* * *

Conditions: in n-butanol, 307.25 K
measurement-type: solubility (mole fraction)
Keep the answer to the number alone.

Entry under test: CCCCCCCCCCCCCCCCCCCCCC(=O)OCCO . Its solubility (mole fraction) was 0.0018

* * *

Details: in cyclohexane, 303.85 K
measurement-type: solubility (mole fraction)
Reply with just the number.

For reference, reported solubility (mole fraction) for CCCCCCCCCCCCCCCCCC(=O)OCCO stands at 0.314

* * *

Details: in isobutanol, 300.35 K
measurement-type: solubility (mole fraction)
Lab note: jot the number down without any unit.

response.value for CCCCCCCCCCCCCCCCCCCCCC(=O)OCCO (field: solubility (mole fraction)) = 0.0004

* * *

Details: in 1,1,1-trichloroethane, 309.55 K
measurement-type: solubility (mole fraction)
# respond with the number and nothing more

Summary for this compound, CCCCCCCCCCCCCCCCCCCC(=O)OCCO : solubility (mole fraction) is 0.142

* * *

Settings: in isopropanol, 306.35 K
measurement-type: solubility (mole fraction)
Number, no unit, nothing else.

Note to self: solubility (mole fraction) recorded for CCCCCCCCCCCCCCCCCCCC(=O)OCCO was 0.0008

* * *

Conditions: in isopropanol, 304.05 K
measurement-type: solubility (mole fraction)
Please give the numeric answer without any surrounding text.

In plain terms, CCCCCCCCCCCCCCCCCCCC(=O)OCCO has a documented solubility (mole fraction) of 0.0005

* * *

Settings: in n-pentyl acetate, 305.75 K
measurement-type: solubility (mole fraction)

# solubility (mole fraction) of CCCCCCCCCCCCCCCCCC(=O)OCCO = 0.121

* * *

Conditions: in isopropanol, 313.15 K
Listed below: solubility (mole fraction) values for each entry.
Give the figure by itself; no unit, no explanation.

>>> observed_value("CCCCCCCCCCCCCCCCCCCCCC(=O)OCCO")
0.0008

Turning now to a further compound:
Entry CCCCCCCCCCCCCCCCCCCC(=O)OCCO , solubility (mole fraction) reported as 0.0028

* * *

Settings: in n-hexyl acetate, 293.95 K
measurement-type: solubility (mole fraction)
API doc: respond with a numeric literal and nothing else, no unit.

Recorded result, CCCCCCCCCCCCCCCCCC(=O)OCCO , solubility (mole fraction): 0.0267

* * *

Settings: in n-butanol, 313.75 K
measurement-type: solubility (mole fraction)

Sample CCCCCCCCCCCCCCCCCCCC(=O)OCCO ; solubility (mole fraction) observed: 0.0122

* * *

Conditions: in n-hexyl acetate, 311.65 K
measurement-type: solubility (mole fraction)
Lab note: jot the number down without any unit.

Note to self: solubility (mole fraction) recorded for CCCCCCCCCCCCCCCCCC(=O)OCCO was 0.202

* * *

Conditions: in trichloroethylene, 304.25 K
measurement-type: solubility (mole fraction)
Answer with a number only.

Entry under test: CCCCCCCCCCCCCCCCCCCC(=O)OCCO . Its solubility (mole fraction) was 0.104

* * *

Settings: in trichloroethylene, 311.3 K
measurement-type: solubility (mole fraction)
Form rule: numeric answer, no unit written next to it.

The recorded solubility (mole fraction) for CCCCCCCCCCCCCCCCCCCC(=O)OCCO is 0.216

* * *

Settings: in n-propyl acetate, 322.15 K
measurement-type: solubility (mole fraction)
Respond using a number only.

Just so you know, measured solubility (mole fraction) for CCCCCCCCCCCCCCCCCC(=O)OCCO came out at 0.566

* * *

Conditions: in n-pentyl acetate, 300.85 K
measurement-type: solubility (mole fraction)
// return just the number, without any unit appended

Item: CCCCCCCCCCCCCCCCCC(=O)OCCO | solubility (mole fraction): 0.168

* * *

Settings: in n-butyl acetate, 313.15 K
measurement-type: solubility (mole fraction)

Item: CCCCCCCCCCCCCCCCCC(=O)OCCO | solubility (mole fraction): 0.267

* * *

Details: in tetrachloroethylene, 303.25 K
measurement-type: solubility (mole fraction)
Hey, just send me the number, nothing else.

Given item CCCCCCCCCCCCCCCCCCCCCC(=O)OCCO , the value recorded as its solubility (mole fraction) is 0.0008

* * *

Conditions: in n-propanol, 299.15 K
measurement-type: solubility (mole fraction)
The response must contain the number and no unit.

Value of measured solubility (mole fraction) for the entry CCCCCCCCCCCCCCCCCCCCCC(=O)OCCO : 0.0003

* * *

Settings: in n-butanol, 307.95 K
measurement-type: solubility (mole fraction)

So, CCCCCCCCCCCCCCCCCCCC(=O)OCCO ? Its solubility (mole fraction) was 0.0027

* * *

Details: in n-hexyl acetate, 320.05 K
measurement-type: solubility (mole fraction)
Please respond with just the number, no unit label.

The compound listed as CCCCCCCCCCCCCCCCCC(=O)OCCO has a reported solubility (mole fraction) of 0.464

* * *

Settings: in cyclohexane, 295.95 K
measurement-type: solubility (mole fraction)
// return a plain number; no unit text

Lab book: solubility (mole fraction) of CCCCCCCCCCCCCCCCCCCCCC(=O)OCCO noted as 0.0024

* * *

Conditions: in tetrachloroethylene, 309.75 K
measurement-type: solubility (mole fraction)
Response field accepts a number only; no unit should be typed.

The reported value for CCCCCCCCCCCCCCCCCCCCCC(=O)OCCO in terms of solubility (mole fraction) is 0.0028

* * *

Conditions: in n-propyl acetate, 314.95 K
measurement-type: solubility (mole fraction)
# print the numeric value only

solubility (mole fraction) for CCCCCCCCCCCCCCCCCC(=O)OCCO is 0.315

* * *

Details: in n-hexyl acetate, 302.35 K
measurement-type: solubility (mole fraction)
Answer using only a numeral; do not append any unit.

Field solubility (mole fraction) (entry CCCCCCCCCCCCCCCCCC(=O)OCCO ) reads 0.0633
